Origin of values: ChEMBL document CHEMBL1201862

# System: DLD-1
# ASSAY_PROTOCOL: NCI tumour cell line growth inhibition, 48 h
Activity calls are given as the source filed them. Rule as the data show it: active = GI50 up to about 1.1 µM and inactive = higher.
Outcome codes: active, inactive

| COMPOUND | ASSIGNED_CLASS |
| --- | --- |
| C=Cc1cc(OC)c2c(c1)c(=O)oc1c2cc(OC)c2c(O)ccc(C3OC(C)C(O)C(C)(O)C3O)c21 (stereo unspecified) | active |
| CCOP(=O)(OCC)C1CCCCOC1=O (stereo unspecified) | inactive |
| Clc1ccc(-n2nnc(C3=NCCCN3)c2-c2ccccc2)cc1 | inactive |
| CP1(=O)CCCCC1 | inactive |
| CC1=C(C(=O)CC(=O)C(=O)Nc2ccccc2)Sc2ccccc2N1 | inactive |
| CCC(=C(c1ccc(OCc2ccccc2)cc1)c1ccc(OCc2ccccc2)cc1)c1ccc(OC)cc1 | inactive |

====

# Tested on: SK-MEL-2
# ASSAY_PROTOCOL: NCI tumour cell line growth inhibition, 48 h
The source made the active and inactive calls. Rule as the data show it: active = GI50 up to about 1.1 µM and inactive = higher.
Outcome codes: TRUE for active, FALSE for inactive

| COMPOUND | ASSIGNED_CLASS |
| --- | --- |
| Cc1ccc(NC(=O)CC/C(CC(=O)C(C)(C)C)=N/NC(=O)C[N+](C)(C)C)cc1C | FALSE |
| CCCC(=O)n1[nH]c(=O)n(-c2ccc(Cl)cc2)c1=O | FALSE |
| CC(C)C(NC(=O)C(Cc1ccccc1)NC(=O)[C@H]1CCC[C@H]1NC(=O)C(Cc1ccc(OC(C)(C)C)cc1)NC(=O)OC(C)(C)C)C(N)=O (stereo not given in full) | FALSE |
| COC(=O)C1=C(C)NC(=O)N2[C@@H](CCOCc3ccccc3)CC[C@@H]12 | FALSE |
| O=C(/N=N/c1ccc(Br)cc1)NNc1ccc(Br)cc1 | FALSE |
| COC(=O)c1c/c(=N\NC(=O)CC(=O)Nc2ccc(C)cc2)c2ccccc2o1 | FALSE |
| C=Cc1cc(OC)c2c(c1)c(=O)oc1c2cc(OC)c2c(O)ccc(C3OC(C)C(O)C(C)(O)C3O)c21 (stereo not given) | TRUE |
| CCOc1ccc(NC(=O)/C(Cc2nc3ccccc3nc2O)=N\O)cc1 | FALSE |
| CCCCCCCCCCCC1CCCC(C)N1 (stereo not given) | FALSE |
| COC(=O)c1cc2c3c(ccc2[nH]1)N(C(=O)c1cc2cc(OC)c(OC)c(OC)c2[nH]1)CC3CCl (stereo not given) | FALSE |
| C[C@]12CCC(=O)C=C1CC[C@@H]1[C@@H]2CC[C@]2(C)C(=O)NC(=O)C[C@@H]12 | FALSE |
| CCOC1CN=C(Nc2cccc3ccccc23)S1 (stereo not given) | FALSE |
| NC(=O)C(=CNC(=S)Nc1ccc(S(=O)(=O)Nc2ccccn2)cc1)C(N)=O | FALSE |
| COc1ccc2c(CCNS(=O)(=O)c3ccccc3)c(C(C)=O)[nH]c2c1[N+](=O)[O-] | FALSE |
| O=[N+]([O-])c1cccc2nc3ccccc3c(NCCCN3CCCCC3)c12 | TRUE |
| COC(=O)C12C(=O)O[C@H](C)C1(O)C(C)C(=O)N2C (stereo not given in full) | FALSE |
| CCOc1cc2c(cc1O)C(N)C[C@@H]1[C@@H]2CC[C@]2(C)[C@@H](O)CC[C@@H]12 (stereo not given in full) | FALSE |
| CCP(=O)(CC)C(Cl)(Cl)C(=O)NC | FALSE |
| CCN(CC)CCN(C)c1ccc(CO)c2c1c(=O)c1ccccc1[s+]2[O-] (stereo not given) | FALSE |
| C[C@@H]1[C@@H](c2ccccc2)O[B-](c2ccccc2)(c2ccccc2)N1C | FALSE |
